The measured values listed here are drawn from patent US20230263822A1.

Details: rat, in vivo, sc, 50 mg/kg
Albumin by entry:

{"SUBSTANCE": "ISIS 416860: MOE gapmer, nucleobases 1275 to 1318 of SEQ ID NO: 1 (Table 8) (antisense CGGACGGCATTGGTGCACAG; MOE gapmer, wing and gap sizes not given here)", "Albumin": 4}
{"SUBSTANCE": "ISIS 416863: MOE gapmer, nucleobases 1275 to 1318 of SEQ ID NO: 1 (Table 8) (antisense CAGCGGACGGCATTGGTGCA; MOE gapmer, wing and gap sizes not given here)", "Albumin": 4}
{"SUBSTANCE": "ISIS 416859: MOE gapmer, nucleobases 1275 to 1318 of SEQ ID NO: 1 (Table 8) (antisense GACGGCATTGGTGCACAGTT; MOE gapmer, wing and gap sizes not given here)", "Albumin": 5}

---

Tested on: human Factor 11 mRNA
Assay: Dose-dependent inhibition of human Factor 11 in HepG2 cells, electroporation 123.46-10,000 nM (Example 31)
Format: cell-based
Conditions: electroporation, 10,000.0 nM, approx. 16 hours, relative to untreated control cells
Strand notation (5' to 3'): a small letter for the sugar, then the base; units joined by * are phosphorothioate-linked, units joined directly phosphodiester-linked; [ ] holds rarer units or linkages, { } end groups; capitals alone tell only the bases. e = 2'-O-(2-methoxyethyl) (MOE); [5mC] = 5-methylcytosine; d = 2'-deoxy (DNA)
MEASUREMENT_LABEL: Percent inhibition of Factor 11 mRNA at 10,000.0 nM

{"SUBSTANCE": "445498 (antisense eG*eG*eT*eG*e[5mC]*eA*d[5mC]*dA*dG*dT*dT*dT*d[5mC]*dT*eG*eG*e[5mC]*eA*eG*eG) [compound 445498]", "MEASURED_VALUE": "58%"}
{"SUBSTANCE": "416858 (antisense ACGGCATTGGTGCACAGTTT; 5-10-5 gapmer, further chemistry not given here) [compound 416858]", "MEASURED_VALUE": "70%"}
{"SUBSTANCE": "445505 (antisense e[5mC]*eG*eG*e[5mC]*eA*eT*dT*dG*dG*dT*dG*d[5mC]*dA*d[5mC]*eA*eG*eT*eT*eT*e[5mC]) [compound 445505]", "MEASURED_VALUE": "77%"}
{"SUBSTANCE": "445522 (antisense eG*e[5mC]*eA*e[5mC]*eA*dG*dT*dT*dT*d[5mC]*dT*dG*dG*e[5mC]*eA*eG*eG*e[5mC]) [compound 445522]", "MEASURED_VALUE": "74%"}
{"SUBSTANCE": "416856 (antisense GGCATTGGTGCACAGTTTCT; 5-10-5 gapmer, further chemistry not given here) [compound 416856]", "MEASURED_VALUE": "83%"}
{"SUBSTANCE": "416851 (antisense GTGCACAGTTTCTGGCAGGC; 5-10-5 gapmer, further chemistry not given here) [compound 416851]", "MEASURED_VALUE": "72%"}
{"SUBSTANCE": "445531 (antisense eG*eG*e[5mC]*eA*eT*dT*dG*dG*dT*dG*d[5mC]*dA*d[5mC]*eA*eG*eT*eT*eT) [compound 445531]", "MEASURED_VALUE": "77%"}
{"SUBSTANCE": "445504 (antisense eG*eG*e[5mC]*eA*eT*eT*dG*dG*dT*dG*d[5mC]*dA*d[5mC]*dA*eG*eT*eT*eT*e[5mC]*eT) [compound 445504]", "MEASURED_VALUE": "68%"}
{"SUBSTANCE": "416861 (antisense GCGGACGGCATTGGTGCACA; 5-10-5 gapmer, further chemistry not given here) [compound 416861]", "MEASURED_VALUE": "80%"}

---

Test system: blood coagulation
Test: PT and aPTT assay in cynomolgus monkeys (Example 45)
Assay type: in vivo
Conditions: day 57; escalating dose regimen; platelet poor plasma
aPTT ratio (INR) by entry:
MEASUREMENT_LABEL: aPTT ratio (INR)

{"SUBSTANCE": "ISIS 416864: MOE gapmer, nucleobases 1275 to 1318 of SEQ ID NO: 1 (Table 8) (antisense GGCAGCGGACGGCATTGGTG; MOE gapmer, wing and gap sizes not given here)", "MEASUREMENT_LABEL": "aPTT ratio (INR)", "MEASURED_VALUE": 1.19}
{"SUBSTANCE": "ISIS 416858: MOE gapmer, nucleobases 1275 to 1318 of SEQ ID NO: 1 (Table 8) (antisense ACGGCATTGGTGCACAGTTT; MOE gapmer, wing and gap sizes not given here)", "MEASUREMENT_LABEL": "aPTT ratio (INR)", "MEASURED_VALUE": 1.59}
{"SUBSTANCE": "ISIS 416838: MOE gapmer, nucleobases 1018 to 1042 of SEQ ID NO: 1 (Table 6) (antisense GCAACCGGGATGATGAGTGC; MOE gapmer, wing and gap sizes not given here)", "MEASUREMENT_LABEL": "aPTT ratio (INR)", "MEASURED_VALUE": 1.21}
{"SUBSTANCE": "ISIS 416850: MOE gapmer, nucleobases 1275 to 1318 of SEQ ID NO: 1 (Table 8) (antisense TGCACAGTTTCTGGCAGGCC; MOE gapmer, wing and gap sizes not given here)", "MEASUREMENT_LABEL": "aPTT ratio (INR)", "MEASURED_VALUE": 1.59}
{"SUBSTANCE": "ISIS 417002: MOE gapmer, nucleobases 1275 to 1318 of SEQ ID NO: 1 (Table 8) (antisense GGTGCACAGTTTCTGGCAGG; MOE gapmer, wing and gap sizes not given here)", "MEASUREMENT_LABEL": "aPTT ratio (INR)", "MEASURED_VALUE": 1.22}

---

Experiment: Hematology assays in cynomolgus monkeys (Example 45)
Format: in vivo
Conditions: day −14; escalating dose regimen
Procedure: Groups, each consisting of two male and three female monkeys, were injected subcutaneously with ISIS 416838, ISIS 416850, ISIS 416858, ISIS 416864, or ISIS 417002 in escalating doses. […] Body weights were measured weekly. […]

{"SUBSTANCE": "ISIS 416858: MOE gapmer, nucleobases 1275 to 1318 of SEQ ID NO: 1 (Table 8) (antisense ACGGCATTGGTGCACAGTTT; MOE gapmer, wing and gap sizes not given here)", "MCV [fL]": 77}
{"SUBSTANCE": "ISIS 416838: MOE gapmer, nucleobases 1018 to 1042 of SEQ ID NO: 1 (Table 6) (antisense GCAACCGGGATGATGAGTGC; MOE gapmer, wing and gap sizes not given here)", "MCV [fL]": 77}
{"SUBSTANCE": "ISIS 416864: MOE gapmer, nucleobases 1275 to 1318 of SEQ ID NO: 1 (Table 8) (antisense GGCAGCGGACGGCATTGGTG; MOE gapmer, wing and gap sizes not given here)", "MCV [fL]": 79}
{"SUBSTANCE": "ISIS 416850: MOE gapmer, nucleobases 1275 to 1318 of SEQ ID NO: 1 (Table 8) (antisense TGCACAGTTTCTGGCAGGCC; MOE gapmer, wing and gap sizes not given here)", "MCV [fL]": 78}
{"SUBSTANCE": "ISIS 417002: MOE gapmer, nucleobases 1275 to 1318 of SEQ ID NO: 1 (Table 8) (antisense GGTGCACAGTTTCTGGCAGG; MOE gapmer, wing and gap sizes not given here)", "MCV [fL]": 79}

---

Tested on: human Factor 11 mRNA
Test: Dose-dependent inhibition of human Factor 11 in HepG2 cells, lipofectin 9.375-75 nM (Example 4)
Type: cell-based
Details: 75 nM, relative to untreated control cells
Strand notation (5' to 3'): a small letter for the sugar, then the base; units joined by * are phosphorothioate-linked, units joined directly phosphodiester-linked; [ ] holds rarer units or linkages, { } end groups; capitals alone tell only the bases. e = 2'-O-(2-methoxyethyl) (MOE); [5mC] = 5-methylcytosine; d = 2'-deoxy (DNA)
Would you please tag the item yes (1) when its percent inhibition of Factor 11 at 75 nM is 70% or above, and no (0) when it is below?

{"SUBSTANCE": "416923 (antisense eT*eG*e[5mC]*dA*d[5mC]*dA*dG*dT*dT*dT*d[5mC]*dT*dG*dG*d[5mC]*dA*dG*eG*e[5mC]*e[5mC]) [compound 416923]", "LABEL_VALUE": "no (0)"}
{"SUBSTANCE": "416985 (antisense eG*e[5mC]*dA*dA*d[5mC]*d[5mC]*dG*dG*dG*dA*dT*dG*dA*dT*dG*eA*eG*eT*eG*e[5mC]) [compound 416985]", "LABEL_VALUE": "no (0)"}
{"SUBSTANCE": "416850 (antisense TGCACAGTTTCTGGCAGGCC; 5-10-5 gapmer, further chemistry not given here) [compound 416850]", "LABEL_VALUE": "yes (1)"}
{"SUBSTANCE": "416908 (antisense eG*e[5mC]*eA*dA*d[5mC]*d[5mC]*dG*dG*dG*dA*dT*dG*dA*dT*dG*dA*dG*eT*eG*e[5mC]) [compound 416908]", "LABEL_VALUE": "yes (1)"}
{"SUBSTANCE": "416856 (antisense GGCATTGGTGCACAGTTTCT; 5-10-5 gapmer, further chemistry not given here) [compound 416856]", "LABEL_VALUE": "yes (1)"}
